Test: melting temperature; fluorescence melt of hairpins on a sequencing array, two-state fit, raised by 9.35 °C to match UV melts
Details: sodium 0.088 M
reported-endpoint: Tm (°C)

sequence-input	reported-endpoint	unit-abbrev	val
GAGGTGGGAAACCATCTC (((.(((....))).)))	Tm	°C	47.7
GGGTTGGGAAACCAGTCC ((..(((....)))..))	Tm	°C	38
GCTAGAGGAAACTCTAGC (((((((....)))))))	Tm	°C	58.5
CGGTCGGAAACGATCCCG ((((((....)))..)))	Tm	°C	34.9
GCGTACGGAAACGTACAC (.(((((....))))).)	Tm	°C	42.8
GATCCTGTGCAGGATC ((((((....))))))	Tm	°C	55
GTCGGCGAAAGCCGCGAC ((((((....)))..)))	Tm	°C	57.7
GGGTTGGCGAAAGCCCCC (((..(((....))))))	Tm	°C	46.3
